Data origin, for the record: patent US20260116910A1

Biological target: UniProtKB Q96LA9
Assay: MRGPRX4 activation, Fluo-8 Ca2+ FLIPR assay in HEK293T cells stably expressing MRGPRX4
Format: cell-based
Conditions: Conc. (Log[M]) −6
Parameter threshold = -0.03. Response is Satisfied when MRGPRX4 activation, fluorescence change (dF/F0), Average meets or exceeds it, else Not satisfied.

query: Reported MRGPRX4 activation, fluorescence change (dF/F0), Average reaches at least -0.03 for CC[C@H]1[C@@H](O)[C@@H]2[C@H](CC[C@]3(C)[C@@H]([C@H](C)CCNC(=O)NS(=O)(=O)c4ccc5c(c4)CCN5C(C)=O)CC[C@@H]23)[C@@]2(C)CCCC[C@@H]12 ?
result: Satisfied

query: Does the compound CC[C@H]1[C@@H](O)[C@@H]2[C@H](CC[C@]3(C)[C@@H]([C@H](C)CCNC(=O)NS(=O)(=O)c4ccc5c(c4)OCO5)CC[C@@H]23)[C@@]2(C)CCCC[C@@H]12 have recorded MRGPRX4 activation, fluorescence change (dF/F0), Average that is -0.03 or more?
result: Satisfied

query: State whether the measured MRGPRX4 activation, fluorescence change (dF/F0), Average reaches -0.03, counting equality as reaching it, for C[C@H](CCCO)[C@H]1CC[C@H]2[C@@H]3CC[C@@H]4CCCC[C@]4(C)[C@H]3CC[C@]12C
result: Satisfied

query: Please check the record C[C@H](CCC(C)(C)O)[C@H]1CC[C@H]2[C@@H]3CC[C@@H]4CCCC[C@]4(C)[C@H]3CC[C@]12C and state if its MRGPRX4 activation, fluorescence change (dF/F0), Average is at or above -0.03.
result: Not satisfied

query: Does CC[C@H]1[C@@H](O)[C@@H]2[C@H](CC[C@]3(C)[C@@H]([C@H](C)CCNC(=O)NS(=O)(=O)N4CCCC4)CC[C@@H]23)[C@@]2(C)CCCC[C@@H]12 have a reported MRGPRX4 activation, fluorescence change (dF/F0), Average of at least -0.03?
result: Satisfied

query: Test whether the compound C[C@H](CC/C=C/C(=O)O)[C@H]1CC[C@H]2[C@@H]3CC[C@@H]4C[C@H](O)CC[C@]4(C)[C@H]3CC[C@]12C records MRGPRX4 activation, fluorescence change (dF/F0), Average of -0.03 or higher.
result: Not satisfied

* * *

Consider the following compounds; for each one, report its Activation (%).
Molecular target: MRGPRX4 (Homo sapiens, UniProt Q96LA9)
Sequence (Q96LA9 whole entry): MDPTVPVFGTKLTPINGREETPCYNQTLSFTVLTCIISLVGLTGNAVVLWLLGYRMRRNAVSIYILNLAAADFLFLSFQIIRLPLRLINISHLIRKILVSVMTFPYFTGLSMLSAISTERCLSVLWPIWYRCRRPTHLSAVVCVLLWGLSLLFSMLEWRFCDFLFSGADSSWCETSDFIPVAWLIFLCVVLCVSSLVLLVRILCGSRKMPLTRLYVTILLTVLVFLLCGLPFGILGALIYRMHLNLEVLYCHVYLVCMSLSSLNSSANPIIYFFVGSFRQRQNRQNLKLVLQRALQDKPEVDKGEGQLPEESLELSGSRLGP
Experiment: MRGPRX4 activation, Fluo-8 Ca2+ FLIPR assay in HEK293T cells stably expressing MRGPRX4
Assay type: cell-based
Details: second E3-8-1, 1111 nM, n = 1
Please give a number only; it is taken to be in %.

query: Specify Activation (%) for CC[C@H]1[C@@H](O)[C@@H]2[C@H](CC[C@]3(C)[C@@H]([C@H](C)COC(=O)NS(=O)(=O)c4ccc(N5CCCCC5)nc4)CC[C@@H]23)[C@@]2(C)CCCC[C@@H]12 , system MRGPRX4 (Homo sapiens, UniProt Q96LA9).
result: 2.55

query: For MRGPRX4 (Homo sapiens, UniProt Q96LA9), give Activation (%) of the listed compound: CC[C@H]1[C@@H](O)[C@@H]2[C@H](CC[C@]3(C)[C@@H]([C@H](C)CNC(=O)NS(=O)(=O)c4ccc(N5CCCCC5)nc4)CC[C@@H]23)[C@@]2(C)CCCC[C@@H]12
result: 3.79

query: Look up and report Activation (%), with MRGPRX4 (Homo sapiens, UniProt Q96LA9) as system, for CC[C@H]1[C@@H](O)[C@@H]2[C@H](CC[C@]3(C)[C@@H]([C@H](C)COC(=O)NS(=O)(=O)c4ccc5c(c4)CCC(C)(C)O5)CC[C@@H]23)[C@@]2(C)CCCC[C@@H]12
result: 2.24

query: State, for MRGPRX4 (Homo sapiens, UniProt Q96LA9), measured Activation (%) of the compound listed here: CC[C@H]1[C@@H](O)[C@@H]2[C@H](CC[C@]3(C)[C@@H]([C@H](C)COC(=O)NS(=O)(=O)c4ccc(C(C)(C)CF)cc4)CC[C@@H]23)[C@@]2(C)CCCC[C@@H]12
result: 2.86

* * *

Target: MRGPRX4 (Homo sapiens)
Assay: MRGPRX4 activation, Fluo-8 Ca2+ FLIPR assay in HEK293T cells stably expressing MRGPRX4
Assay type: cell-based
Conditions: second E3-8-1, 30000 nM, n = 1
Provide the recorded Activation (%) for the entries that follow.
# value in %; strip the unit string

query: For CC[C@H]1[C@@H](O)[C@@H]2[C@H](CC[C@]3(C)[C@@H]([C@H](C)COC(=O)NS(=O)(=O)c4ccc5c(c4)CCC(C)(C)O5)CC[C@@H]23)[C@@]2(C)CCCC[C@@H]12 [18-2] , write its Activation (%).
result: 4.10

query: Identify the reported Activation (%) for the following entry. CC[C@H]1[C@@H](O)[C@@H]2[C@H](CC[C@]3(C)[C@@H]([C@H](C)CNC(=O)NS(=O)(=O)c4ccc(N5CCCCC5)nc4)CC[C@@H]23)[C@@]2(C)CCCC[C@@H]12 [20-3]
result: 1.63

query: Respond only with Activation (%) recorded for CC[C@H]1[C@@H](O)[C@@H]2[C@H](CC[C@]3(C)[C@@H]([C@H](C)COC(=O)NS(=O)(=O)c4ccc(C(C)(C)CF)cc4)CC[C@@H]23)[C@@]2(C)CCCC[C@@H]12 [18-1]
result: 2.24

query: Kindly indicate its recorded Activation (%). Item: CC[C@H]1[C@@H](O)[C@@H]2[C@H](CC[C@]3(C)[C@@H]([C@H](C)COC(=O)NS(=O)(=O)c4ccc(N5CCCCC5)nc4)CC[C@@H]23)[C@@]2(C)CCCC[C@@H]12 [18-3]
result: 1.63

* * *

Target: MRGPRX4 (Homo sapiens, UniProt Q96LA9)
Assay: MRGPRX4 activation, Fluo-8 Ca2+ FLIPR assay in HEK293T cells stably expressing MRGPRX4
Type: cell-based
Details: second E3-8-1, 370 nM, n = 2
Procedure: In some embodiments, cells were cultured in poly-D-Lys coated blacked walled, clear-bottom 96-well microplates. […] The concentration of solution should be determined according to the protocol settings and experimental needs (e.g., Log[M]=−4, −5, −6, −7, −8, and −9). […] A fluorescent signal baseline was measured using FLIPR®Tetra for 30 s. […] The fluorescent signal would be measured for another 150 s. Activity of each compound was calculated by the fluorescence change (dF/F0). […]
reported.metric: Activation (%)
Quick note: give the figure in %, leave out the unit.

query: Specify Activation (%) for CC[C@H]1[C@@H](O)[C@@H]2[C@H](CC[C@]3(C)[C@@H]([C@H](C)COC(=O)NS(=O)(=O)c4ccc(C(C)(C)CF)cc4)CC[C@@H]23)[C@@]2(C)CCCC[C@@H]12 and stop.
result: 3.48

query: Give the reported Activation (%) for this molecule. CC[C@H]1[C@@H](O)[C@@H]2[C@H](CC[C@]3(C)[C@@H]([C@H](C)COC(=O)NS(=O)(=O)c4ccc5c(c4)CCC(C)(C)O5)CC[C@@H]23)[C@@]2(C)CCCC[C@@H]12
result: 3.48

query: Output measured Activation (%) for this item: CC[C@H]1[C@@H](O)[C@@H]2[C@H](CC[C@]3(C)[C@@H]([C@H](C)CNC(=O)NS(=O)(=O)c4ccc(N5CCCCC5)nc4)CC[C@@H]23)[C@@]2(C)CCCC[C@@H]12
result: 3.17

query: Please indicate Activation (%) recorded for CC[C@H]1[C@@H](O)[C@@H]2[C@H](CC[C@]3(C)[C@@H]([C@H](C)COC(=O)NS(=O)(=O)c4ccc(N5CCCCC5)nc4)CC[C@@H]23)[C@@]2(C)CCCC[C@@H]12
result: 3.48

* * *

Molecular target: MRGPRX4 (Homo sapiens)
Experiment: MRGPRX4 activation, Fluo-8 Ca2+ FLIPR assay in HEK293T cells stably expressing MRGPRX4
Type: cell-based
Conditions: second E3-8-1, 1111 nM, n = 2
reported.metric: Activation (%)
Report the value in % with no unit label.

query: Please report the measured Activation (%) for CC[C@H]1[C@@H](O)[C@@H]2[C@H](CC[C@]3(C)[C@@H]([C@H](C)CNC(=O)NS(=O)(=O)c4ccc(N5CCCCC5)nc4)CC[C@@H]23)[C@@]2(C)CCCC[C@@H]12 [20-3]
result: 3.48

query: Respond only with Activation (%) recorded for CC[C@H]1[C@@H](O)[C@@H]2[C@H](CC[C@]3(C)[C@@H]([C@H](C)COC(=O)NS(=O)(=O)c4ccc5c(c4)CCC(C)(C)O5)CC[C@@H]23)[C@@]2(C)CCCC[C@@H]12 [18-2]
result: 2.55

query: Tell me its Activation (%) given CC[C@H]1[C@@H](O)[C@@H]2[C@H](CC[C@]3(C)[C@@H]([C@H](C)COC(=O)NS(=O)(=O)c4ccc(C(C)(C)CF)cc4)CC[C@@H]23)[C@@]2(C)CCCC[C@@H]12 [18-1] as the entry.
result: 2.86

query: For CC[C@H]1[C@@H](O)[C@@H]2[C@H](CC[C@]3(C)[C@@H]([C@H](C)COC(=O)NS(=O)(=O)c4ccc(N5CCCCC5)nc4)CC[C@@H]23)[C@@]2(C)CCCC[C@@H]12 [18-3] , write its Activation (%).
result: 2.24
